Where these numbers come from: paper PMC10757926

molecular target: T1, full-length hSIRPα on U2OS cells (Homo sapiens, UniProt P78324); assay: immunostaining of cells or tissue; live-cell immunofluorescence on U2OS cells expressing the target; unlabeled Nbs (1 nM to 100 nM) with Cy5-labeled anti-VHH, 1 h at 37°C; settings: one partner purified
T1 construct: signal-regulatory protein α (SIRPα), human, full-length, co-expressed with IRES-derived GFP; also called U2OS-hSIRPα; source: U2OS, stably expressing, on live cells
T1 sequence (P78324 31-504): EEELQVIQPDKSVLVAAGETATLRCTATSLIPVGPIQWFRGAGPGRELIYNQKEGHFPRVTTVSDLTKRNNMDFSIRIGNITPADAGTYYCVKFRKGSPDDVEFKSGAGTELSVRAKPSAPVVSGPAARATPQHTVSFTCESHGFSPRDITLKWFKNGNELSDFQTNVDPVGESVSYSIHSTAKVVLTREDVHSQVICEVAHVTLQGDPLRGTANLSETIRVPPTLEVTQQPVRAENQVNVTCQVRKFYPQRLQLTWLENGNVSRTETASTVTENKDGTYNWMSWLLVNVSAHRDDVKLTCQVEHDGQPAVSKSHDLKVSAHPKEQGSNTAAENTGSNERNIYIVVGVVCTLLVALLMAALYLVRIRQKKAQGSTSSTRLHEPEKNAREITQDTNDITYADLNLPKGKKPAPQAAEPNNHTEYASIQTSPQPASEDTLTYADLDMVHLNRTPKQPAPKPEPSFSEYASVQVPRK
measured-attribute: binding result

>  <binder>
hSIRPα Nb S44 (VHH, selected against domain 1 of hSIRPα; source: E. coli XL-1, purified (IMAC, SEC); not shown: His tag (from the IMAC purification)) VHH: QVQLQESGGGLVQPGGSLRLACAASGFTFSSYDMSWVRQAPGKGLEWVSDIKSGGGRTYYADSVKGRFTISRDNAKNTVYLQMNSLKPEDTAVYYCGSLDNSGAYTGGGQGSQVTVSS

>  <reading>
binds

$$$$
>  <binder>
hSIRPα-S36 Nb (VHH, selected against the entire extracellular portion of hSIRPα; also called Nb S36; original S36 Nb; source: E. coli XL-1, purified (IMAC, SEC); not shown: His tag (from the IMAC purification)) VHH: EVQLVESGGGLVQPGGSLRLSCAASGFTLDYYAIGWFRQVPGKEREGVSCISSDGGGNTYYADSVKGRFTISRDNAKNTVYLQMNSLKPEDSAVYSCAAGPTYYSGSYCRDPHSDYDYWGQGTQVTVSS

>  <reading>
binds

$$$$
